Each recorded value in this set is attributed to patent US7241760B2.

Biological target: human mGlu 5a receptor (Homo sapiens)
Sequence (P41594 21-1180 isoform P41594-2 limits assumed): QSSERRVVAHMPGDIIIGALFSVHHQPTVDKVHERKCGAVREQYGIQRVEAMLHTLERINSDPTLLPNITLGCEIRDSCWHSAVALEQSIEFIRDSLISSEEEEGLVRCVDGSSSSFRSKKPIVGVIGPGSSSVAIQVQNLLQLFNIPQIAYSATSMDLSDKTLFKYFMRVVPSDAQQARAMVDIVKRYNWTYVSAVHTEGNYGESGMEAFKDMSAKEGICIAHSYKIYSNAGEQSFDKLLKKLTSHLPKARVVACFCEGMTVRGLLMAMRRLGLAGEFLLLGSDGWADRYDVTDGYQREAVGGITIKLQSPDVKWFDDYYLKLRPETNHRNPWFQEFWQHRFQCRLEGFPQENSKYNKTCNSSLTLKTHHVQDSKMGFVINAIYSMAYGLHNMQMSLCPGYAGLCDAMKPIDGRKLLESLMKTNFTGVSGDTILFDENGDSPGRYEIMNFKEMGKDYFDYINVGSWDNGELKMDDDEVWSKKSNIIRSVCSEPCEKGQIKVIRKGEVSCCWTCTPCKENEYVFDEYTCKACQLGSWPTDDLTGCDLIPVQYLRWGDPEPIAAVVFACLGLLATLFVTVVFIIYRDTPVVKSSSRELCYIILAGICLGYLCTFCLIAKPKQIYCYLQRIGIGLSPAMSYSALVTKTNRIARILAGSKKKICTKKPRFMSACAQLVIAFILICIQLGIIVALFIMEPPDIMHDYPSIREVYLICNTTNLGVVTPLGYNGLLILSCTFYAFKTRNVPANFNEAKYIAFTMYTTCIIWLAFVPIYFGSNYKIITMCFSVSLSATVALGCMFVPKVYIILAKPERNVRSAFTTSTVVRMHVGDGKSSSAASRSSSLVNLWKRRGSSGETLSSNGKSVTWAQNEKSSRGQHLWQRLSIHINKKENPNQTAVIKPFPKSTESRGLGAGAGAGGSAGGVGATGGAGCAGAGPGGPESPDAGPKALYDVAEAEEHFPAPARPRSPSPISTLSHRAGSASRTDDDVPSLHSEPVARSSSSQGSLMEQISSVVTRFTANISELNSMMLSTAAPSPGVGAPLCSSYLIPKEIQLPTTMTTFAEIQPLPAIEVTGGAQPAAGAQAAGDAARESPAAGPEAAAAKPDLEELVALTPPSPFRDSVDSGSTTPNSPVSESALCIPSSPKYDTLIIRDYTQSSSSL
observable: Ki (nM)
Field format: number, assumed nM, no unit text.

- molecule: "Cc1nc(C#Cc2cccc(C#N)c2)cn1-c1cnccn1 [Example 22]"
  unit_of_measure: "nM"
  endpoint_value: 60

If you can, please state the reported Ki value of Cc1nc(C#Cc2cccc(Cl)c2)cn1-c1ccoc1 [Example 9] .
11

Next molecule: Cc1ccc(-n2cc(C#Cc3cccc(C(F)(F)F)c3)nc2C)nc1 [Example 31]
88

Next molecule: Cc1nc(C#Cc2cccc(Cl)c2)cn1-c1nccc(C(F)(F)F)n1 [Example 2]
28

Next molecule: Cc1nc(C#Cc2cccc(Cl)c2)cn1-c1ccc(N(C)C)nn1 [Example 27]
130

Next molecule: Cc1nc(C#Cc2cccc(Cl)c2)cn1-c1cccc(N2CCSCC2)n1 [Example 39]
9

Next molecule: Cc1nc(C#Cc2cccc(Cl)c2)cn1-c1ncccn1 [Example 1]
63

Next molecule: COc1ccnc(-n2cc(C#Cc3cccc(C#N)c3)nc2C)n1 [Example 20]
11

Next molecule: COc1ccc(-n2cc(C#Cc3cccc(Cl)c3)nc2C)nn1 [Example 26]
94

Next molecule: Cc1nc(C#Cc2cccc(C(F)(F)F)c2)cn1-c1ccc(Cl)nc1 [Example 33]
66
